# Test system: NCI-H460
# measurementNotes: relative viability (nuclei count vs DMSO), 5 days (fraction); higher = more cells survive
# studyConditions: first compound 0.0002 µM
testReadout: relative viability
In your answer, state the number alone without any accompanying words.

compound: CC(=O)O[C@@]12CO[C@@H]1C[C@H](O)[C@@]1(C)C(=O)[C@H](O)C3=C(C)[C@@H](OC(=O)[C@H](O)[C@@H](NC(=O)OC(C)(C)C)c4ccccc4)C[C@@](O)([C@@H](OC(=O)c4ccccc4)[C@H]21)C3(C)C [Docetaxel] + C[C@]1(O)C[C@@H](c2nc(-c3ccc4ccc(-c5ccccc5)nc4c3)c3c(N)nccn32)C1 [Linsitinib] (partner 1 µM)
relative viability: 0.715
--
compound: CC(=O)O[C@@]12CO[C@@H]1C[C@H](O)[C@@]1(C)C(=O)[C@H](O)C3=C(C)[C@@H](OC(=O)[C@H](O)[C@@H](NC(=O)OC(C)(C)C)c4ccccc4)C[C@@](O)([C@@H](OC(=O)c4ccccc4)[C@H]21)C3(C)C [Docetaxel] + NC(=O)Nc1cc(-c2cccc(F)c2)sc1C(=O)N[C@H]1CCCNC1 [AZD7762] (partner 0.2 µM)
relative viability: 0.565
--
compound: CC(=O)O[C@@]12CO[C@@H]1C[C@H](O)[C@@]1(C)C(=O)[C@H](O)C3=C(C)[C@@H](OC(=O)[C@H](O)[C@@H](NC(=O)OC(C)(C)C)c4ccccc4)C[C@@](O)([C@@H](OC(=O)c4ccccc4)[C@H]21)C3(C)C [Docetaxel] + O=C(CCCCCCC(=O)Nc1ccccc1)NO [Vorinostat] (partner 1 µM)
relative viability: 0.637

**Q:** Query relative viability for CC(=O)O[C@@]12CO[C@@H]1C[C@H](O)[C@@]1(C)C(=O)[C@H](O)C3=C(C)[C@@H](OC(=O)[C@H](O)[C@@H](NC(=O)OC(C)(C)C)c4ccccc4)C[C@@](O)([C@@H](OC(=O)c4ccccc4)[C@H]21)C3(C)C [Docetaxel] + CS(=O)(=O)N1CCN(Cc2cc3nc(-c4cccc5[nH]ncc45)nc(N4CCOCC4)c3s2)CC1 [Pictilisib] (partner 1 µM)
**A:** 0.351

**Q:** Query relative viability for CC(=O)O[C@@]12CO[C@@H]1C[C@H](O)[C@@]1(C)C(=O)[C@H](O)C3=C(C)[C@@H](OC(=O)[C@H](O)[C@@H](NC(=O)OC(C)(C)C)c4ccccc4)C[C@@](O)([C@@H](OC(=O)c4ccccc4)[C@H]21)C3(C)C [Docetaxel] + Nc1ncn([C@H]2C[C@H](O)[C@@H](CO)O2)c(=O)n1 [Decitabine] (partner 2 µM)
**A:** 0.443
